- protocol-text: Glutathione peroxidase like activity of compound assessed as fold increase by measuring reduction in NADPH level at 10 uM by microplate reader assay relative to SPI-1005
- Assay type: ADME
// NB: equality with 7 counts as Condition not met; only fold change (FC) strictly below is Condition met

1. O=c1c2cc(Br)ccc2[se]n1-c1ccccc1	Condition met
2. O=c1c2cccc(Br)c2[se]n1-c1cccnc1	Condition not met
3. COc1ccc2c(=O)n(-c3ccccc3)[se]c2c1	Condition met
4. O=c1c2cccc(F)c2[se]n1-c1ccccc1	Condition met
5. Cc1cccc2c(=O)n(-c3ccccc3)[se]c12	Condition met
6. COc1cccc(-n2[se]c3ccccc3c2=O)c1	Condition met
7. O=c1c2cccc(Br)c2[se]n1-c1ccccn1	Condition not met
8. COc1cccc2[se]n(-c3ccccc3)c(=O)c12	Condition met
9. COc1ccccc1-n1[se]c2ccccc2c1=O	Condition met
10. COc1ccc(-n2[se]c3ccccc3c2=O)cc1	Condition met
11. O=c1c2cccc(Cl)c2[se]n1-c1ccccc1	Condition not met
12. O=c1c2cccc(Br)c2[se]n1-c1ccncc1	Condition not met
13. COc1cccc2c(=O)n(-c3cccnc3)[se]c12	Condition not met
14. O=c1c2cccc(Br)c2[se]n1-c1ccccc1	Condition not met
15. COc1cccc2c(=O)n(-c3ccccc3)[se]c12	Condition not met
16. COc1cccc2c(=O)n(-c3ccncc3)[se]c12	Condition not met
17. O=c1c2ccc(Br)cc2[se]n1-c1ccccc1	Condition met
18. COc1ccc2[se]n(-c3ccccc3)c(=O)c2c1	Condition met

----------
- protocol-text: Glutathione peroxidase like activity of compound assessed as fold increase by measuring reduction in NADPH level at 100 uM by microplate reader assay relative to SPI-1005
- Format: ADME
reported-property: fold change (FC)

1) O=c1c2cccc(Br)c2[se]n1-c1ccncc1	3.4
2) O=c1c2cccc(Br)c2[se]n1-c1ccccc1	3.5
3) O=c1c2cccc(Cl)c2[se]n1-c1ccccc1	3.5
4) O=c1c2cccc([N+](=O)[O-])c2[se]n1-c1ccccc1	3.3
5) COc1ccccc1-n1[se]c2ccccc2c1=O	1.1
6) Cc1cccc2c(=O)n(-c3ccccc3)[se]c12	2.5
